# assay_remarks: Clearance in Sprague-Dawley rat at 1 mg/kg, iv infusion for 10 mins or 5 mg/kg, po administered via gavage by LC-MS/MS analysis
# Assay type: ADME, organism-based
# experimental_setup: in vivo
Documented clearance across a set of compounds
Numeric only. Scale: mL/min/kg

// lookup clearance for `Cc1nc2cc(-c3cccc(-c4ccccc4F)c3)nn2c(-c2cc(F)c3c(c2C)CCCO3)c1[C@H](OC(C)(C)C)C(=O)O` 13

Same question, `COc1ccccc1-c1cccc(-c2cc3nc(C)c([C@H](OC(C)(C)C)C(=O)O)c(-c4cc(F)c5c(c4C)CCCO5)n3n2)c1` this time 28

Next compound: `Cc1ccccc1-c1cccc(-c2cc3nc(C)c([C@H](OC(C)(C)C)C(=O)O)c(-c4cc(F)c5c(c4C)CCCO5)n3n2)c1` 7.1

---

# assay_remarks: Therapeutic index, ratio of CC50 for human MT2 cells to EC50 for HIV1 NL4-3 infected in human MT2 cells
# Type: toxicity, cell-based
# experimental_setup: read-out: Ratio CC50/EC50
metric: selectivity ratio
Form rule: numeric answer, no unit written next to it.

[
  {
    "molecule": "Cc1nc2ccccc2c(-c2ccc3c4c(ccnc24)CCO3)c1[C@H](OC(C)(C)C)C(=O)O [BI-224436]",
    "selectivity ratio": 66800
  },
  {
    "molecule": "Cc1nc2cc(-c3cccc(-c4ccncc4)c3)nn2c(-c2cc(F)c3c(c2C)CCCO3)c1[C@H](OC(C)(C)C)C(=O)O",
    "selectivity ratio": 4410
  },
  {
    "molecule": "Cc1ccccc1-c1cccc(-c2cc3nc(C)c([C@H](OC(C)(C)C)C(=O)O)c(-c4cc(F)c5c(c4C)CCCO5)n3n2)c1",
    "selectivity ratio": 4690
  }
]

Now for a further molecule.
Requested read-out: selectivity ratio. Entry: `COc1ccccc1-c1cccc(-c2cc3nc(C)c([C@H](OC(C)(C)C)C(=O)O)c(-c4cc(F)c5c(c4C)CCCO5)n3n2)c1` 3920

---

# assay_remarks: Half life in Sprague-Dawley rat at 1 mg/kg, iv infusion for 10 mins or 5 mg/kg, po administered via gavage by LC-MS/MS analysis
# Assay type: ADME, organism-based
# experimental_setup: in vivo
metric: half-life (h)
Please give a number only; it is taken to be in h.

Consider the worked cases shown below.
[
  {
    "smiles": "Cc1ccccc1-c1cccc(-c2cc3nc(C)c([C@H](OC(C)(C)C)C(=O)O)c(-c4cc(F)c5c(c4C)CCCO5)n3n2)c1",
    "quantitative_result": 4.1
  },
  {
    "smiles": "COc1ccccc1-c1cccc(-c2cc3nc(C)c([C@H](OC(C)(C)C)C(=O)O)c(-c4cc(F)c5c(c4C)CCCO5)n3n2)c1",
    "quantitative_result": 3
  }
]

With those in mind, consider the next compound.
Can you look up the measured half-life of `Cc1nc2cc(-c3cccc(-c4ccccc4F)c3)nn2c(-c2cc(F)c3c(c2C)CCCO3)c1[C@H](OC(C)(C)C)C(=O)O` for me? 2

---

# assay_remarks: Therapeutic index, ratio of CC50 for human MT2 cells to EC50 for HIV1 NL4-3 infected in human MT2 cells
# Type: toxicity, cell-based
# experimental_setup: read-out: Ratio CC50/EC50
# key: entry, value: selectivity ratio
Please respond with just the number, no unit label.

// query selectivity ratio value for entry `Cc1nc2cc(-c3cccc(-c4ccccc4F)c3)nn2c(-c2cc(F)c3c(c2C)CCCO3)c1[C@H](OC(C)(C)C)C(=O)O` 6360

Try this compound too: `Cc1nc2cc(-c3cccc(-c4ccccc4)c3)nn2c(-c2cc(F)c3c(c2C)CCCO3)c1[C@H](OC(C)(C)C)C(=O)O` 1100
